Ref: patent EP3800188A1

target-or-system: canine Irak4 (Canis lupus familiaris, UniProt A0A8I3S726)
Sequence (A0A8I3S726 2-459): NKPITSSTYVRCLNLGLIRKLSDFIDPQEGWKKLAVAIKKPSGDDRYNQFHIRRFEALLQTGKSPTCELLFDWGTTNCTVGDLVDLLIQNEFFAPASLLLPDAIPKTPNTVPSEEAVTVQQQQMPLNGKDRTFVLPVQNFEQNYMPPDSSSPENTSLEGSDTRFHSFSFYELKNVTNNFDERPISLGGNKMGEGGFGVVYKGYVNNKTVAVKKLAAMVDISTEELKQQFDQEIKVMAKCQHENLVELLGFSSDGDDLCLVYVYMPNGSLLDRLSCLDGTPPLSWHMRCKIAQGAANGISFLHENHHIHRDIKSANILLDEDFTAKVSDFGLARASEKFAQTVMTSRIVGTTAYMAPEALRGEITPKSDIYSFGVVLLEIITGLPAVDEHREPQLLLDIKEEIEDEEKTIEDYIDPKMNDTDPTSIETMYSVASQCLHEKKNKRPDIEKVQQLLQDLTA
quantity-kind: IC50 (nM)

smiles=CC(C)(O)C1CCN(c2nc(NC3CCS(=O)(=O)CC3)nc3c2cnn3-c2cccc(C(F)(F)F)c2)CC1 units_text=nM test_result=9.27

A: CC(C)(O)C1CCN(c2nc(NC3CN(S(C)(=O)=O)C3)nc3c2cnn3-c2cccc(C(F)(F)F)c2)CC1
B: CC(C)(O)C1CCN(c2nc(N[C@@H]3CNC(=O)C3)nc3c2cnn3-c2cccc(C(F)(F)F)c2)CC1
Prompt: Kindly identify the item with the lower IC50 figure among these two: A and B Choose, then provide that item's label.
Completion: B
(B: 8.7 nM, A: 12.7 nM)
